System: SK-MEL-2 melanoma
Assay: NCI tumour cell line growth inhibition, 48 h
property.measured: GI50

- O=C(Nc1ncc(Cc2ccccc2)s1)c1ccc2c(c1)OCCCO2: 1.36 µM
- O=S(=O)([O-])[O-].[Cl-].[NH2-].[NH2-].[NH2-].[NH2-].[Ru+3].c1ccc(-c2cccnc2)cc1: > 100 µM
- COc1cc([C@@H]2c3cc4c(cc3C(Br)[C@H]3COC(=O)[C@H]23)OCO4)cc(OC)c1OC (some centres not stated): 0.499 µM
- O=c1[nH]cnc2c1nnn2C1OC(CO)C(O)C1O (configuration not stated): 12.3 µM
- C=C1C(=O)O[C@H]2[C@H]1CC/C(CNS(=O)(=O)c1ccc3ccccc3c1)=C\CC[C@@]1(C)O[C@@H]21: 2.13 µM
- CCCCCCCCCCCCCC[P+](CCCCCC)(CCCCCC)CCCCCC: 0.0266 µM
- CC1=C(C(=O)Nc2ccc3[nH]ncc3c2)C(c2ccc(F)cc2)NC(=O)N1 (configuration not stated): > 25 µM
- N#Cc1cccc(C(=O)c2cnn(-c3ccc(F)cc3)c2N)c1: 24.4 µM
- COc1cc(C(=O)/C=C/c2c(-c3ccc(F)cc3)nc3sc(C)cn23)cc(OC)c1OC: 5.75 µM
- CCOC(=O)c1cc2c(n1Cc1cc(OC)cc(OC)c1)-c1oncc1CCC2: 0.038 µM
- Cc1ccccc1S(=O)(=O)N1[C@H](c2ccc(Cl)cc2)C(C(=O)N[C@@H](Cc2ccccc2)C(N)=O)=C[C@@H]1C(C)(C)C: 9.59 µM
- Cn1c(=O)c(Oc2cccc(F)c2)cc2cnc(NC3CCOCC3)nc21: > 25 µM
- Nc1c(C(=O)c2cccc(-c3ccc[n+]([O-])c3)c2)cnn1-c1ccc(F)cc1F: > 25 µM
- Cc1cccc2nc3cccc(C(=O)NCCC[N+](C)(CCCNC(=O)c4cccc5nc6cccc(C)c6nc45)Cc4c([N+](=O)[O-])ncn4C)c3nc12: 260 µM
- O=C1c2ccccc2-c2nccc3cc(Cl)nc1c23: 2.83 µM
- Nc1ccc(-c2nc3ccccc3[nH]2)c(O)c1: > 100 µM
- COc1ccc(C2=CC(c3cc(OC)c(OC)c(OC)c3)NC(=O)N2)cc1OC (configuration not stated): 4.96 µM

###

Test system: SN12C renal
Assay: NCI tumour cell line growth inhibition, 48 h
property.measured: TGI

- Oc1ccc2occ3c2c1CCC3: > 100 µM
- COc1cc([C@@H]2c3cc4c(cc3C(Br)[C@H]3COC(=O)[C@H]23)OCO4)cc(OC)c1OC (stereo partly drawn): > 100 µM
- COC(=O)c1ccc(CCc2cc(O)ccc2O)cc1: 29.3 µM
- [N-]=[N+]=NC1CC(n2cc(COCC(F)(F)F)c(=O)[nH]c2=O)OC1CO (stereo not drawn): > 100 µM
- Cc1ccccc1S(=O)(=O)N1[C@H](c2ccc(Cl)cc2)C(C(=O)N[C@@H](Cc2ccccc2)C(N)=O)=C[C@@H]1C(C)(C)C: 13.3 µM
- C=CCN(c1cc(OCc2ccccc2)c(NC(C)=O)cc1[N+](=O)[O-])S(C)(=O)=O: > 100 µM
- Cc1nc2cncc(C#Cc3cncc(C(=O)Nc4ccc(CN5CCN(C)CC5)c(C(F)(F)F)c4)c3)c2nc1C: 17 µM
- O=c1[nH]c2cc3cccnc3c(Cl)c2nc1C(F)(F)F: > 100 µM
- Cc1cc(=O)n2nc(CSc3nnc(N)s3)sc2n1: > 100 µM
- O=C(NNc1cn[nH]c(=O)c1Cl)/C(=C/c1ccc2c(c1)OCO2)NC(=O)c1ccccc1: > 100 µM
- CNc1nc(C)c(-c2nc(Nc3cccc(S(N)(=O)=O)c3)ncc2F)s1: 2.69 µM
- NCCNCCCCCCNC(=O)c1cccc2cc3ccccc3nc12: 7.8 µM
- N/N=C1/C(=N/O)CCc2nonc21: > 100 µM
- c1cc(C2CCCCC2)ccc1OCCCCCCN1CCNCC1: 3.54 µM
- C[C@]12CC/C(=N\N)C[C@@H]1CC[C@@H]1[C@@H]2CC[C@]2(C)/C(=N/N)CC[C@@H]12: > 100 µM
- NC(=O)C(Br)CBr (stereo not drawn): 20.6 µM
- COc1ccc(C2=CC(c3cc(OC)c(OC)c(OC)c3)NC(=O)N2)cc1OC (stereo not drawn): 8.33 µM
- CS(=O)(=O)N(CCC#N)c1ccc(/C=N/NC(=O)CC(=O)Nc2cccc(Cl)c2)cc1: > 100 µM
- Cc1ccc(S(=O)(=O)NC(=O)NCCC(=O)O)cc1: > 100 µM
- c1cc(C[S+]2CCCC2)ccc1C[S+]1CCCC1: > 100 µM
- CC1=C(C)CC2(SC1)C(=O)c1ccccc1C2=O: > 100 µM
- O=C1c2ccccc2C(=O)c2c1ccc1c2N=C(c2ccc(F)cc2)CC(c2ccc(Cl)c(Cl)c2)N1 (stereo not drawn): 32.4 µM
- C=C(C)C(=O)OC1CC2(C)OC2CC(OC(C)=O)/C(C)=C/C2OC(=O)C(=C)C21 (stereo not drawn): 9.37 µM
- CS(=O)(=O)OCCN1CCN(C(=O)c2cccc3c(Nc4ccc(S(N)(=O)=O)cc4)c4ccccc4nc23)CC1: > 100 µM
- O=c1[nH]c(=O)n(COCc2ccccc2)c2ccc(Br)cc12: > 100 µM
- CCOC(=O)/C(C#N)=C/c1ccc(CO)o1: > 100 µM
- CC(NC1=NCCO1)c1cccc([N+](=O)[O-])c1 (stereo not drawn): > 100 µM
- NC(c1ccccc1)(C(F)(F)F)P1(=O)OC(=O)c2ccccc2O1 (stereo not drawn): > 100 µM
- C[N+](C)([O-])CCCNc1c2ccccc2nc2cccc([N+](=O)[O-])c12: 1.43 µM
- N=S(=O)(c1ccccc1)c1ccccc1[N+](=O)[O-] (stereo not drawn): > 100 µM
- O=C(c1ccccc1)c1c(C(F)(F)F)n([O-])c2cc(Cl)c(Cl)cc2[n+]1=O: 1.87 µM
- CNS(=O)(=O)NN(C)S(=O)(=O)c1ccc(Cl)cc1: > 100 µM
- O=c1[nH]cnc2c1nnn2C1OC(CO)C(O)C1O (stereo not drawn): > 100 µM
- Oc1ccc2c(c1)CC[N+]1=C2CCC2CCCC21 (stereo not drawn): > 100 µM
- CC1=C(C(=O)Nc2ccc3[nH]ncc3c2)C(c2ccc(F)cc2)NC(=O)N1 (stereo not drawn): > 25 µM
- N#CC(C#N)=Cc1c(O)ccc2ccccc12: 27.3 µM
- OCCCCC#Cc1ccccc1C#Cc1ccccc1F: 40.4 µM
- O=C(OCCN1CCCCC1)C(c1ccccc1)C1(O)CCSCC1 (stereo not drawn): > 100 µM

###

System: UACC-257 melanoma
Test: NCI tumour cell line growth inhibition, 48 h; in the data active = GI50 below about 0.43 µM; inactive = the rest
Classes used: TRUE = active, FALSE = inactive

* O=C(Nc1ccc(Cl)cc1)c1cc2c(cc1O)[nH]c1ccccc12 | FALSE
* O=c1[nH]cnc2c1nnn2C1OC(CO)C(O)C1O (stereo unspecified) | FALSE
* COc1ccc(C(O)c2cc3c(N)c(C(=O)Nc4cccc(Cl)c4C)sc3nc2C)cc1 (stereo unspecified) | FALSE
* COc1cc(C(=O)/C=C/c2c(-c3ccc(F)cc3)nc3sc(C)cn23)cc(OC)c1OC | FALSE
* C[C@@H]1COCCN1c1nc(-c2cnc(N)cc2C(F)F)nc(N2[C@H](C)COC[C@@H]2C)n1 | TRUE
* Nc1ccc(-c2nc3ccccc3[nH]2)c(O)c1 | FALSE

###

Tested on: NCI-H23 lung
Test: NCI tumour cell line growth inhibition, 48 h
Each entry below lists one item and its recorded TGI value.
property.measured: TGI

• CCN(CC)CC(=O)/C=C/c1ccc(C)cc1 = > 100 µM
• Cc1cc(=O)n2nc(CSc3nnc(N)s3)sc2n1 = > 100 µM
• O=S1(=O)N(Cc2ccccc2)[C@@H](Cc2ccccc2)C2O[C@H]2[C@H](Cc2ccccc2)N1Cc1ccccc1 (some centres undefined) = > 7.5 µM
• COC(=O)c1ccc(CCc2cc(O)ccc2O)cc1 = > 54.9 µM

###

System: U251 CNS
Assay: NCI tumour cell line growth inhibition, 48 h
Each entry below lists one item and its recorded TGI value.
property.measured: TGI

• O=[N+]([O-])c1cc(O)c(O)cc1-c1cn2ccsc2n1 = > 100 µM
• C[C@@H]1C[C@]2(C[C@@H](C)[C@H]3C(C[C@@]4(C)CCC[C@@H]5C6=C[C@H](CCC34C)OC6=CC(=O)OC5(C)C)O2)OC1=O (stereo not given in full) = > 51.5 µM
• O=C1CCC2CCc3cccc4oc1c2c34 (stereo not given) = > 100 µM
• O=C(NCCCCNCCCNC(=O)c1ccccc1)c1ccccc1 = > 100 µM
• Nc1ccccc1NC(=O)CCCCCCC(=O)Nc1ccc2c(c1)/C(=C/c1ccc[nH]1)C(=O)N2 = > 100 µM
